Target or test system: RSV fusion glycoprotein (RSV F) on RSV-A2 virus (respiratory syncytial virus, UniProt P03420 26-574)
Procedure summary: cell-based or functional assay
Readout: Neutralization IC50 (RSV subtype A)

Before answering, review these 2 worked examples.
ADI-41406 (antibody, V domains shown, IgG1; also called Ab 698) VH: EVQLVESGGNLVQPGGSLRLSCAASGFTFSSYVMNWVRQAPGKGLEWVSGISGSGGTSYYADSVKGRFTISRDNSNNTLYLQMKSLRAEDTAVYYCAKDPRFQKWLIEGTNWFDSWGQGTLVTVSS VL: DIQVTQSPSSLSASVGDRVTITCRASQDVSNYLAWFQQKPGTAPKSLIYAASILQSGVPSKFRGSGSGTDFSLTISSLQPEDFATYYCQQYRSFPPTFGGGTKVEIK = > 25 µg/mL
ADI-41396 (antibody, V domains shown) VH: EVQLVESGGGLVNPGGSLRLSCVVSGFAFSSYGMNWVRQAPGKGLEWVSSISASSSYIDYADSVKGRFIISRDNAKNSLHLQMNSLRAEDTAVYYCARLGYDSSTYYTNWFDPWGRGTLVTVSS VL: QSVVTQEPSVSGAPGQRVTISCTGSSSNIGTGYDVHWYQQLPGAAPKLLIYGNSNRPSGVPDRISGSKSGTSASLAITGLQAEDEADYYCQSYDSSLSGYVFGTGTKVTVL = 1.37 µg/mL

Parameters: items (list). Returns: Neutralization IC50 (RSV subtype A) for each item.
1. ADI-41356 (antibody, V domains shown, IgG1) VH: QVQLVQSGAEVKKPGASVKVSCKASGYTFTNYDINWVRQATGQGLEWMGWMNRNNGNTGYARKFQGRVTMTRNTSISTAYMELSSLRSEDTAVYYCARGGDFYAMDVWGQGTTVTVSS VL: SYELTQPPSVSVSPGQTASITCSGDKLGDKYASWYQQKPGQSPVLVIYQDTKRPSGVPERFSGSNSGNTATLTISGTQAVDEADYYCQVWDGSIAFGGGTKVTVL
2. ADI-41368 (antibody, V domains shown, IgG1; also called Ab 665) VH: EVQLVESGGGVVQPGRSLRLSCAASGFIFRNYGMHWVRQAPGKGLEWVAGTSFEGRNKDYGHSVKGRFTISRDNSKDTLYLQMNSLRPEDTAVYSCAKGSSLQWSHLDWYFDLWGRGTLVTVSS VL: DIVMTQSPSTLSASVGDRVTITCRASQSFSSWLAWYQQKPGKAPNLLIYDASTLESGVPSRFSGSGSGTEFTLTISSLQPDDFATYYCQQERTFGQGTKVEIK
3. ADI-41414 (antibody, V domains shown, IgG1) VH: EVQLLESGGGLAQPGRSLKVSCAASGVTVTSTYMGWVRQAPGKGLQWVSVIYSDGTTYYADSVKGRFTISRDHYKNTLYLQMNSLRAEDTALYYCARGNRRTDFGYWGQGTLVTVSS VL: EIVMTQSPSTLSASVGDRVTITCRASQTISNWLAWYQQKPGKAPKLLIYQASTLESGVPSRFSGSGSGTEFTLTISSLQPDDFATYYCQQYNTYYTFGPGTKVEIK
4. ADI-41358 (antibody, V domains shown) VH: EVQLVESGGGLVKPGGSLRLSCEASGFTLTSYSMNWVRQAPGKGLEWVSSISSSSTYIHYADSVKGRFTISRDNAKNSLYLQMNSLRAEDTAVYYCARDKVMVTKYNGMDVWGQGTTVTVSS VL: QSVLTQPPAVSGAPGQRVTISCTGSSSNIGAGHDVHWYQQLPGTAPKLLIYGNSNRPSGVPDRFSGSKSGTSASLAITGLQAGDEADYYCQSYDSSLSGSLFGGGTKLTVL

["0.115 µg/mL", "> 25 µg/mL", "> 25 µg/mL", "0.389 µg/mL"]
